Sourced from paper PMC7838034

Measured inhibition at 1 µM by item
# measured target: recombinant BRD4(BD1 + BD2) (Homo sapiens, UniProt O60885)
# test details: BRD4 inhibition assay
# Assay type: binding
# cond: read-out: Inhibition rate BRD4, 1 μmol/L; tested in duplicate, average
measure name: inhibition at 1 µM (%)

{"columns": ["molecule", "units", "number"],
 "data": [
  ["COc1cc(OC)c2c(=O)[nH]c(-c3cc(Cl)ccc3OCCOc3ccccc3C(N)=O)nc2c1 [Compound 19a]", "%", 31],
  ["COc1cc(OC)c2c(=O)[nH]c(-c3ccc(C(=O)N4CCN(C(=O)C5CC5)CC4)cc3F)nc2c1 [Compound 15a]", "%", 7],
  ["COc1cc(OC)c2c(=O)[nH]c(-c3ccc4cc[nH]c4c3)nc2c1", "%", 3],
  ["COc1cc(OC)c2c(=O)[nH]c(-c3cc(C)c(OCCOc4ccccc4C(N)=O)c(C)c3)nc2c1 [Compound 19f]", "%", 11],
  ["COc1cc(OC)c2c(=O)[nH]c(-c3ccc(OCCOc4ccccc4C(N)=O)c(F)c3)nc2c1 [Compound 19h]", "%", 12],
  ["COc1cc(OC)c2c(=O)[nH]c(-c3ccc(OCCOc4ccc5cn[nH]c5c4)cc3)nc2c1 [Compound 19o]", "%", 3],
  ["O=c1[nH]c(-c2cccc3nc[nH]c23)nc2ccccc12", "%", 0]
]}

----------
# measured target: PARP1 (Homo sapiens, UniProt P09874)
# Sequence (P09874 whole entry): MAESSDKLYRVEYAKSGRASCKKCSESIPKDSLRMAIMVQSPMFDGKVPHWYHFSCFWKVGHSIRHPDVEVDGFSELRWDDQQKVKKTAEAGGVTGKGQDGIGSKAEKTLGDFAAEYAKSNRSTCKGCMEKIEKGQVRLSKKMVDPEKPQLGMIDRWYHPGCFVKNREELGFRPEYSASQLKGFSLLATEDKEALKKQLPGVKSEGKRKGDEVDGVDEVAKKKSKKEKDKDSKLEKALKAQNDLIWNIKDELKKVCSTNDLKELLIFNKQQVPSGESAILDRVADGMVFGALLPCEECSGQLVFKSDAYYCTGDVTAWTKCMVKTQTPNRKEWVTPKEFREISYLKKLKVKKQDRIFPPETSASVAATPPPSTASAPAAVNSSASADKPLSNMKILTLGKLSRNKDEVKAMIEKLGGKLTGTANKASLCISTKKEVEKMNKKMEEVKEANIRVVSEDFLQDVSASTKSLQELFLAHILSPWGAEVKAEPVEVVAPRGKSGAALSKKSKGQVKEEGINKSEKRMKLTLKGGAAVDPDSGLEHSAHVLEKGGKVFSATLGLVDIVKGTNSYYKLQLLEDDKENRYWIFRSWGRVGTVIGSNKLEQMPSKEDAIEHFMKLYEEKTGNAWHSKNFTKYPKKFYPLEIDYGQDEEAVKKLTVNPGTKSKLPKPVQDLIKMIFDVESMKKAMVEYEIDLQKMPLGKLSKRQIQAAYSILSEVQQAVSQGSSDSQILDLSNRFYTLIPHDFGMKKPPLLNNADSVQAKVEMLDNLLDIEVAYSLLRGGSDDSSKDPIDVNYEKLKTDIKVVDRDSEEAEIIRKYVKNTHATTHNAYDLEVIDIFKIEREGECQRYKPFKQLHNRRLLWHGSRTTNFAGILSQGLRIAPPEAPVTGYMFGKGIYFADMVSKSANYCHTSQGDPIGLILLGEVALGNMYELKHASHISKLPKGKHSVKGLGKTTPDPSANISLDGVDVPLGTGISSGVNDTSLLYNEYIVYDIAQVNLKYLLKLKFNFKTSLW
# test details: PARP1 inhibition assay
# Format: biochemical
# cond: read-out: Inhibition rate PARP1, 1 μmol/L; tested in duplicate, average
// class assignment uses inhibition at 1 µM with these ranges: range A (below 1%), range B (1% to below 10%), range C (10% or more)

{"columns": ["molecule", "qualitative label"],
 "data": [
  ["COc1cc(OC)c2c(=O)[nH]c(-c3ccc(OCCOc4ccccc4C(N)=O)c(F)c3)nc2c1 [Compound 19h]", "range C"],
  ["COc1cc(OC)c2c(=O)[nH]c(-c3cc(OC)c(OCCOc4ccccc4C(N)=O)c(OC)c3)nc2c1 [Compound 19g]", "range C"],
  ["O=c1[nH]c(-c2ccc(N3CCOCC3)cc2)nc2ccccc12 [Compound 5f]", "range A"],
  ["COc1cc(OC)c2c(=O)[nH]c(-c3ccc(OCCOn4nnc5ccccc54)c(Cl)c3)nc2c1 [Compound 19p]", "range B"],
  ["COc1cc(OC)c2c(=O)[nH]c(-c3cc(Cl)ccc3OCCOc3ccccc3C(N)=O)nc2c1 [Compound 19a]", "range C"],
  ["COc1cc(OC)c2c(=O)[nH]c(-c3cc(F)ccc3OCCOc3ccccc3C(N)=O)nc2c1 [Compound 19s]", "range C"],
  ["COc1cc(OC)c2c(=O)[nH]c(-c3ccc(C(N)=O)cc3)nc2c1 [Compound 5c]", "range A"],
  ["COc1cc(OC)c2c(=O)[nH]c(-c3ccc(C(=O)N4CCn5c(nnc5C(F)(F)F)C4)cc3F)nc2c1 [Compound 15c]", "range C"],
  ["COc1cc(OC)c2c(=O)[nH]c(-c3c[nH]c4ncccc34)nc2c1 [Compound 5i]", "range B"],
  ["COc1cc(OC)c2c(=O)[nH]c(-c3ccc4cc[nH]c4c3)nc2c1 [Compound 5g]", "range B"]
]}

----------
# measured target: PARP1 (Homo sapiens)
# test details: PARP1 inhibition assay
# Assay type: biochemical
# cond: read-out: Inhibition rate PARP1, 1 μmol/L; tested in duplicate, average

{"columns": ["molecule", "inhibition at 1 µM"],
 "data": [
  ["CNC(=O)c1ccc(-c2nc3cc(OC)cc(OC)c3c(=O)[nH]2)cc1 [Compound 5a]", "4%"],
  ["NC(=O)c1ccc(-c2nc3ccccc3c(=O)[nH]2)cc1 [Compound 5d]", "0%"],
  ["COc1cc(OC)c2c(=O)[nH]c(-c3cccc4nc[nH]c34)nc2c1 [Compound 5k]", "6%"],
  ["COc1cc(OC)c2c(=O)[nH]c(-c3ccc(OCCOn4nnc5ccccc54)cc3)nc2c1 [Compound 19k]", "7%"],
  ["O=C(c1cccc(-c2nc3ccccc3c(=O)[nH]2)c1)N1CCN(C(=O)C2CC2)CC1 [Compound 11b]", "16%"],
  ["COc1cc(OC)c2c(=O)[nH]c(-c3cc(OC)c(OCCOn4nnc5ccccc54)c(OC)c3)nc2c1 [Compound 19j]", "6%"],
  ["COc1cc(OC)c2c(=O)[nH]c(-c3ccc(C(=O)N4CCN(C(=O)C5CC5)CC4)cc3F)nc2c1 [Compound 15a]", "14%"]
]}

----------
# measured target: PARP1 (Homo sapiens, UniProt P09874)
# test details: PARP1 inhibition assay
# Format: biochemical
# cond: read-out: Inhibition rate PARP1, 10 μmol/L; tested in duplicate, average
If the reported inhibition at 10 µM equals or exceeds 20%, assign Fulfilled. If not, assign Not fulfilled.

{"columns": ["molecule", "qualitative label"],
 "data": [
  ["CNC(=O)c1ccc(-c2nc3ccccc3c(=O)[nH]2)cc1", "Not fulfilled"],
  ["COc1cc(OC)c2c(=O)[nH]c(-c3ccc(N4CCOCC4)cc3)nc2c1", "Fulfilled"],
  ["O=C(c1ccc(-c2nc3ccccc3c(=O)[nH]2)c(F)c1)N1CCn2c(nnc2C(F)(F)F)C1 [Compound 15d]", "Fulfilled"],
  ["COc1cc(OC)c2c(=O)[nH]c(-c3cc(C)c(OCCO)c(C)c3)nc2c1 [RVX-208, reference compound]", "Not fulfilled"],
  ["COc1cc(OC)c2c(=O)[nH]c(-c3ccc(OCCOn4nnc5ccccc54)cc3)nc2c1 [Compound 19k]", "Fulfilled"],
  ["COc1cc(OC)c2c(=O)[nH]c(-c3ccc(OCCOc4ccccc4C(N)=O)c(F)c3)nc2c1 [Compound 19h]", "Fulfilled"],
  ["NC(=O)c1ccc(-c2nc3ccccc3c(=O)[nH]2)cc1", "Not fulfilled"],
  ["COc1cc(OC)c2c(=O)[nH]c(-c3ccc(OCCOc4ccncc4C(N)=O)cc3)nc2c1 [Compound 19u]", "Fulfilled"],
  ["COc1cc(OC)c2c(=O)[nH]c(-c3cccc4nc[nH]c34)nc2c1", "Fulfilled"],
  ["COc1cccc2nc(-c3cccc(C(=O)N4CCN(C(=O)C5CC5)CC4)c3)[nH]c(=O)c12 [Compound 11e]", "Fulfilled"],
  ["COc1cc(OC)c2c(=O)[nH]c(-c3cccc(C(=O)N4CCN(C(=O)C5CC5)CC4)c3)nc2c1 [Compound 11a]", "Fulfilled"],
  ["COc1cc(OC)c2c(=O)[nH]c(-c3cc(Cl)ccc3OCCOc3ccccc3C(N)=O)nc2c1 [Compound 19a]", "Fulfilled"],
  ["COc1cc(OC)c2c(=O)[nH]c(-c3ccc(OCCOc4ccc5cn[nH]c5c4)cc3)nc2c1 [Compound 19o]", "Not fulfilled"],
  ["COc1cc(OC)c2c(=O)[nH]c(-c3cc(OC)c(OCCOc4ccc5cn[nH]c5c4)c(OC)c3)nc2c1 [Compound 19n]", "Not fulfilled"],
  ["COc1cc(OC)c2c(=O)[nH]c(-c3cc(F)ccc3OCCOc3ccccc3C(N)=O)nc2c1 [Compound 19s]", "Fulfilled"],
  ["O=c1[nH]c(-c2cccc3nc[nH]c23)nc2ccccc12", "Not fulfilled"],
  ["O=C(c1cccc(-c2nc3ccccc3c(=O)[nH]2)c1)N1CCN(C(=O)C2CC2)CC1 [Compound 11b]", "Fulfilled"],
  ["COc1cc(OC)c2c(=O)[nH]c(-c3ccc(OCCOc4ccc5nc[nH]c(=O)c5c4)cc3)nc2c1 [Compound 19t]", "Fulfilled"],
  ["COc1cc(OC)c2c(=O)[nH]c(-c3ccc(OCCOn4nnc5ccccc54)c(F)c3)nc2c1 [Compound 19l]", "Not fulfilled"],
  ["COc1cc(OC)c2c(=O)[nH]c(-c3cc(C)c(OCCOn4nnc5ccccc54)c(C)c3)nc2c1 [Compound 19i]", "Not fulfilled"],
  ["COc1cc(OC)c2c(=O)[nH]c(-c3cc(Cl)ccc3OCCCCCOc3ccccc3C(N)=O)nc2c1 [Compound 19e]", "Fulfilled"],
  ["COc1cc(OC)c2c(=O)[nH]c(-c3ccc4cc[nH]c4c3)nc2c1", "Fulfilled"],
  ["COc1cc(OC)c2c(=O)[nH]c(-c3ccc(C(N)=O)cc3)nc2c1", "Not fulfilled"],
  ["CNC(=O)c1ccc(-c2nc3cc(OC)cc(OC)c3c(=O)[nH]2)cc1", "Fulfilled"],
  ["COc1cc(OC)c2c(=O)[nH]c(-c3cc(Cl)ccc3OCCCCOc3ccccc3C(N)=O)nc2c1 [Compound 19c]", "Fulfilled"]
]}
